Measurement Target: T1, human VPAC2 receptor (human, UniProt P41587 24-438)
T1 sequence (looked up): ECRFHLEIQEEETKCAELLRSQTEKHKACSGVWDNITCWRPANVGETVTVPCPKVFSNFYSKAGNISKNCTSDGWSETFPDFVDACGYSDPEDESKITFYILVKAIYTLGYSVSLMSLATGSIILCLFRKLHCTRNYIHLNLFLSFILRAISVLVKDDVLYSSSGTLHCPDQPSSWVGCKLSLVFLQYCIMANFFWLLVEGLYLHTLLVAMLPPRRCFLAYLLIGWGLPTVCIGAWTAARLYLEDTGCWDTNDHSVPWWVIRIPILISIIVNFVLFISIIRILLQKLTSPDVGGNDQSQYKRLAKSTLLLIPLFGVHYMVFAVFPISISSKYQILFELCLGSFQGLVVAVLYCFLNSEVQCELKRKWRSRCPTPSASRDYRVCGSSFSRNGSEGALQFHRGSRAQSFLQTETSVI
Method Notes: cell-based or functional assay
Recorded Endpoint: Human VPAC2 Receptor: Alphascreen (EC50; nM)
Report the figure in nM without appending any unit label.

Q: Requested read-out: Human VPAC2 Receptor: Alphascreen (EC50; nM). Entry: HSDAVFTEQYTXLRXQVAAXXYLQSIXXGGPSSGAPPPS (not fully specified; C6-HSDAVFTEQY(OMe)TOrnLRK(WPEG40K)QVAAAibOrnYLQSIOrnOrnGGPSSGAPPPS-NH2) [P529]
A: 170

Q: Any idea what its Human VPAC2 Receptor: Alphascreen (EC50; nM) is? The binder is HSDAVFTEQYTXXRXQVAAXXYLQSIXXGGPSSGAPPPS (C6-HSDAVFTEQY(OMe)TOrnK(CO(CH2)2SPEG20K)RAibQVAAAibOrnYLQSIOrnOrnGGPSSGAPPPS-NH2) [P470]
A: 83.3

Q: Given the entry HSDAVFTEQYTXLRXQLAXXXYXQSIXXGGPSSGAPPPCC (C6-HSDAVFTEQY(OMe)TOrnLRAibQLAAbuAibOrnYAibQSIOrnOrnGGPSSGAPPPC(PEG20K)C(PEG20K)-NH2) [P521] , report its measured Human VPAC2 Receptor: Alphascreen (EC50; nM).
A: 22.1

Q: Entry under review: HSDAVFTEQYTXLRXQLAXXXYLQXIXXCGGPSSGAPPPC (C6-HSDAVFTEQY(OMe)TOrnLRAibQLAAbuAibOrnYLQAibIOrnOrnC(PEG20K)GGPSSGAPPPC(PEG20K)-NH2) [P580] . Reported Human VPAC2 Receptor: Alphascreen (EC50; nM)?
A: 10.9

Q: Name the reported Human VPAC2 Receptor: Alphascreen (EC50; nM) value associated with the binder HSDAVFTEQYTXLRXQLAXXXYLQSIXXGGPSSGAPPPCC (C6-HSDAVFTEQY(OMe)TOrnLRAibQLAAbuAibOrnYLQSIOrnOrnGGPSSGAPPPC(PEG20K)C(PEG20K)-NH2) [P523]
A: 5.8

Ref: patent US20080234198A1
